- Tested on: MDA-MB-231 breast
- test.details: NCI tumour cell line growth inhibition, 48 h; in the data active = GI50 below about 0.43 µM; inactive = the rest
Labels: True = active, False = inactive

[[record]]
compound = "O=C(N[C@@H](Cc1coc2ccccc12)B(O)O)[C@@H]1C[C@H]2CC[C@@H]1O2"
category_label = "False"

[[record]]
compound = "Nc1c(C(=O)Nc2ccccc2Cl)sc2nc3c(cc12)C(=O)CCC3"
category_label = "False"

[[record]]
compound = "Cc1sc2c(c1C)C(c1ccc(Cl)cc1)=N[C@@H](CC(=O)Nc1ccc(OCCOCCOCCOCCNc3cccc4c3C(=O)N(C3CCC(=O)NC3=O)C4=O)cc1)c1nnc(C)n1-2 (stereo not given in full)"
category_label = "True"

[[record]]
compound = "CC(=O)c1ccc2c(c1)C(=O)c1sc(C(C)=O)cc1C2=O"
category_label = "False"

[[record]]
compound = "CC1(C)N=C(N)N=C(N)N1c1cccc(OCCOc2cccc([N+](=O)[O-])c2)c1"
category_label = "False"

[[record]]
compound = "CCOC(=O)c1sc(NC(=O)COc2cccc(/C=C3\\CCc4cc(OC)ccc4C3=O)c2)nc1C"
category_label = "False"

[[record]]
compound = "O=C(CCN1CCOCC1)Nc1cccc(-n2cc(-c3ccncc3)c(-c3ccc(Cl)c(O)c3)n2)c1"
category_label = "False"

[[record]]
compound = "COc1ccc2c(c1)C(C)Cc1c(ncnc1-n1cnc3ccccc31)N2C (stereo not given)"
category_label = "False"

[[record]]
compound = "NCCCOc1cc(Cl)ccc1NC(=O)c1cc2ccccc2cc1OCCCN"
category_label = "False"

[[record]]
compound = "Cn1cc(-c2csc(-c3cn(C)c4ccc(F)cc34)n2)c2cnccc21"
category_label = "False"


###

- Test system: MALME-3M melanoma
- test.details: NCI tumour cell line growth inhibition, 48 h
Hi, to clarify the labels: class 1 covers TGI from 30 µM upward, class 0 covers anything below 30 µM.

[[record]]
compound = "C=C1C(=O)OC2C1CC(OC(C)=O)/C(C)=C/CCC1(C)OC21 (stereo not given)"
category_label = "class 1"

[[record]]
compound = "CCCCCCCCCCCC(=O)OC[C@@H](C[As](=O)(O)O)OC(=O)CCCCCCCCCCC"
category_label = "class 0"

[[record]]
compound = "COC(=O)[C@@H](NC(=O)N(Cc1ccccc1)C[C@H](CC(C)C)NC(=O)[C@@H](NC(=O)OC(C)(C)C)C(C)C)C(C)C"
category_label = "class 1"

[[record]]
compound = "O=C1/C(=C\\c2cccc(Oc3ccccc3)c2)S(=O)(=O)C(c2ccccc2)N1c1cccc(Cl)c1 (stereo not given)"
category_label = "class 1"

[[record]]
compound = "COc1cc2c3c(n(CCCN(CCO)CCO)c(=O)c2cc1OC)-c1cc2c(cc1C3=O)OCO2"
category_label = "class 0"

[[record]]
compound = "CN(C)CCNC(=O)c1cccc2[nH]c(-c3ccccn3)nc12"
category_label = "class 1"

[[record]]
compound = "COC(=O)C(=O)CC(=O)c1cccc(OC)c1"
category_label = "class 1"

[[record]]
compound = "c1ccc2c(c1)OCCOCCOc1ccccc1OCCO2"
category_label = "class 1"

[[record]]
compound = "O=[N+]([O-])c1c(F)c(F)c2c(c1F)N(CCCCCl)c1ccccc1S2"
category_label = "class 1"


###

- Test system: MDA-MB-435
- test.details: NCI tumour cell line growth inhibition, 48 h
measurement.kind: TGI (µM)

[[record]]
compound = "COc1ccc2nc(-c3ccccc3)c(=O)[nH]c2c1"
quantity_unit = "µM"
qual = ">"
reported_value = 100

[[record]]
compound = "CCOC(=O)C(Cc1ccc(O)cc1)Nc1nc(=O)c2c(=O)oc(Cl)cc2o1 (stereo unspecified)"
quantity_unit = "µM"
qual = "="
reported_value = 20.4

[[record]]
compound = "O=P1(Cc2ccccc2)N(Cc2ccccc2)[C@@H]2CCCC[C@H]2N1Cc1ccccc1"
quantity_unit = "µM"
qual = "="
reported_value = 19.8

[[record]]
compound = "C(=Nc1ccc2c(c1)Cc1ccccc1-2)c1ccccn1"
quantity_unit = "µM"
qual = ">"
reported_value = 100

[[record]]
compound = "CC(C)(C)c1cc(C(=O)/C=C/c2ccc(C(=O)O)cc2)cc(C(C)(C)C)c1"
quantity_unit = "µM"
qual = "="
reported_value = 6.66

[[record]]
compound = "CCCCCCCCCCCC(=O)OC[C@@H](C[As](=O)(O)O)OC(=O)CCCCCCCCCCC"
quantity_unit = "µM"
qual = "="
reported_value = 15

[[record]]
compound = "O=c1[nH]c2nc3ccccc3c(=O)n2/c1=C/c1cccs1"
quantity_unit = "µM"
qual = ">"
reported_value = 100

[[record]]
compound = "COc1cc2c(cc1O)NC(=O)[C@@H]1CCCN1C2=O"
quantity_unit = "µM"
qual = ">"
reported_value = 100

[[record]]
compound = "NCCCNCCCCN1CCOC1=O"
quantity_unit = "µM"
qual = ">"
reported_value = 100

[[record]]
compound = "Oc1ccc(N=Nc2nccs2)c(O)c1"
quantity_unit = "µM"
qual = "="
reported_value = 31

[[record]]
compound = "CCCCC1C=Cn2c(=O)oc3c(OC(C)C)c(C)c(O)c1c32 (stereo unspecified)"
quantity_unit = "µM"
qual = "="
reported_value = 3.38


###

- System: CCRF-CEM leukemia
- test.details: NCI tumour cell line growth inhibition, 48 h
Listed compounds paired with reported TGI
measurement.kind: TGI

[[record]]
compound = "NCCCNCCCCN1CCOC1=O"
assayed_system = "CCRF-CEM leukemia"
measurement_kind = "TGI"
reported_value = "> 100 µM"

[[record]]
compound = "O=C(NC1CCCCC1)c1ccc(Nc2ncnc3c2cnn3-c2ccccc2)cc1"
assayed_system = "CCRF-CEM leukemia"
measurement_kind = "TGI"
reported_value = "> 100 µM"

[[record]]
compound = "Cc1n[n+](Cc2ccccc2)c2sc(N)nn12"
assayed_system = "CCRF-CEM leukemia"
measurement_kind = "TGI"
reported_value = "> 100 µM"

[[record]]
compound = "CN1CCCOC(c2ccc(Cl)cc2)O1 (stereo unspecified)"
assayed_system = "CCRF-CEM leukemia"
measurement_kind = "TGI"
reported_value = "> 100 µM"

[[record]]
compound = "O=c1[nH]nc(Cc2ccc(Cl)cc2)n1/N=C/c1cccs1"
assayed_system = "CCRF-CEM leukemia"
measurement_kind = "TGI"
reported_value = "> 100 µM"

[[record]]
compound = "CC1=NC(C)(COC(=O)C2(C)NC(C)(CO)CO2)COC1=O (stereo unspecified)"
assayed_system = "CCRF-CEM leukemia"
measurement_kind = "TGI"
reported_value = "> 100 µM"

[[record]]
compound = "COC(=O)C(=O)CC(=O)c1cccc(OC)c1"
assayed_system = "CCRF-CEM leukemia"
measurement_kind = "TGI"
reported_value = "> 100 µM"

[[record]]
compound = "CC(=O)O[C@]12CCCCCC1C1(O)C(O)CCCCC12 (stereo partly specified)"
assayed_system = "CCRF-CEM leukemia"
measurement_kind = "TGI"
reported_value = "> 100 µM"

[[record]]
compound = "N#CC(C#N)=C1CCCOc2c1ccc1ccccc21"
assayed_system = "CCRF-CEM leukemia"
measurement_kind = "TGI"
reported_value = "63.7 µM"

[[record]]
compound = "Clc1nc(Cl)c2ncn(Cc3ccccc3Cn3cnc4c(Cl)nc(Cl)nc43)c2n1"
assayed_system = "CCRF-CEM leukemia"
measurement_kind = "TGI"
reported_value = "3.14 µM"

[[record]]
compound = "CC1CCC(C(C)(C)c2ccccc2)C(=O)C1 (stereo unspecified)"
assayed_system = "CCRF-CEM leukemia"
measurement_kind = "TGI"
reported_value = "> 100 µM"

[[record]]
compound = "CC(NC(=O)c1c(O)[nH]c(=S)[nH]c1=O)c1ccc([N+](=O)[O-])cc1 (stereo unspecified)"
assayed_system = "CCRF-CEM leukemia"
measurement_kind = "TGI"
reported_value = "> 100 µM"

[[record]]
compound = "NCCCn1c2c(c3ccccc3c1=O)C(=O)c1ccccc1-2"
assayed_system = "CCRF-CEM leukemia"
measurement_kind = "TGI"
reported_value = "0.375 µM"

[[record]]
compound = "COc1ccc(-c2noc(N)c2-c2cc(OC)c3c(c2)OCO3)cc1"
assayed_system = "CCRF-CEM leukemia"
measurement_kind = "TGI"
reported_value = "> 35.8 µM"

[[record]]
compound = "COc1ccc2nc3cc(Cl)ccc3c(Sc3ccc(NC(C)=O)cc3)c2c1"
assayed_system = "CCRF-CEM leukemia"
measurement_kind = "TGI"
reported_value = "> 100 µM"

[[record]]
compound = "COCCn1cnc2c(Cl)nc(Nc3ccccc3)nc21"
assayed_system = "CCRF-CEM leukemia"
measurement_kind = "TGI"
reported_value = "46.9 µM"

[[record]]
compound = "Cc1nc2ccc(S(=O)(=O)Nc3nccs3)cc2c(=O)n1NS(=O)(=O)c1nccs1"
assayed_system = "CCRF-CEM leukemia"
measurement_kind = "TGI"
reported_value = "> 100 µM"

[[record]]
compound = "CCCC(=O)[O-].CCCC(=O)[O-].NCCN.NCCN.[Co+3].[O-][Cl+3]([O-])([O-])[O-]"
assayed_system = "CCRF-CEM leukemia"
measurement_kind = "TGI"
reported_value = "> 100 µM"

[[record]]
compound = "O=C1CC2CCN(C(=O)c3ccccc3)CC2CCN1 (stereo unspecified)"
assayed_system = "CCRF-CEM leukemia"
measurement_kind = "TGI"
reported_value = "> 100 µM"

[[record]]
compound = "CCOC(=O)c1ccc(-c2ccc(Cl)cc2)[nH]1"
assayed_system = "CCRF-CEM leukemia"
measurement_kind = "TGI"
reported_value = "> 10 µM"

[[record]]
compound = "O=C1CCSCCC(=O)Nc2ccccc2N1"
assayed_system = "CCRF-CEM leukemia"
measurement_kind = "TGI"
reported_value = "> 100 µM"

[[record]]
compound = "CN1CCN(/C(N)=C(\\C#N)C(=O)Nc2ccc(Cl)cc2)CC1"
assayed_system = "CCRF-CEM leukemia"
measurement_kind = "TGI"
reported_value = "> 100 µM"

[[record]]
compound = "Cc1ccc(C)c(N2C(=O)C(=O)C(c3nc4ccccc4o3)/C(=N\\NC(=O)c3ccccc3O)C2=O)c1 (stereo unspecified)"
assayed_system = "CCRF-CEM leukemia"
measurement_kind = "TGI"
reported_value = "42.1 µM"

[[record]]
compound = "Cn1cc(S(=O)(=O)N2CCC3=Cc4c(cnn4-c4ccc(F)cc4)C[C@]3(C(=O)c3cc(C(F)(F)F)ccn3)C2)cn1"
assayed_system = "CCRF-CEM leukemia"
measurement_kind = "TGI"
reported_value = "> 100 µM"

[[record]]
compound = "Cc1ccc(C)c(N2C(=O)C(=O)C(c3nc4ccccc4o3)/C(=N/N)C2=O)c1 (stereo unspecified)"
assayed_system = "CCRF-CEM leukemia"
measurement_kind = "TGI"
reported_value = "> 100 µM"

[[record]]
compound = "Cn1cc(-c2csc(-c3cn(C)c4ccc(F)cc34)n2)c2cnccc21"
assayed_system = "CCRF-CEM leukemia"
measurement_kind = "TGI"
reported_value = "4.13 µM"

[[record]]
compound = "C=C1C(O)C2C(=C(C)C13CC3)C(=O)C(C)(C)C2OC (stereo unspecified)"
assayed_system = "CCRF-CEM leukemia"
measurement_kind = "TGI"
reported_value = "> 100 µM"

[[record]]
compound = "COc1cc2c3c(n(CCCN(C)CCO)c(=O)c2cc1OC)-c1cc2c(cc1C3=O)OCO2"
assayed_system = "CCRF-CEM leukemia"
measurement_kind = "TGI"
reported_value = "0.473 µM"

[[record]]
compound = "NC(=O)CNc1ccc([As]=[As]c2ccc(NCC(N)=O)cc2)cc1 (stereo unspecified)"
assayed_system = "CCRF-CEM leukemia"
measurement_kind = "TGI"
reported_value = "73.6 µM"

[[record]]
compound = "O=Cc1ccc(-c2ccc(-c3ccc(CO)s3)o2)s1"
assayed_system = "CCRF-CEM leukemia"
measurement_kind = "TGI"
reported_value = "> 23.7 µM"

[[record]]
compound = "O=C1/C(=C\\c2cccc(Oc3ccccc3)c2)S(=O)(=O)C(c2ccccc2)N1c1cccc(Cl)c1 (stereo unspecified)"
assayed_system = "CCRF-CEM leukemia"
measurement_kind = "TGI"
reported_value = "83.9 µM"

[[record]]
compound = "COc1cc(C(=O)O[C@H](C(N)=O)[C@]2(C)CO2)c2cccc(C)c2c1"
assayed_system = "CCRF-CEM leukemia"
measurement_kind = "TGI"
reported_value = "5.94 µM"

[[record]]
compound = "COCn1cnc2c(=O)nc(SC)n(-c3ccccc3)c21"
assayed_system = "CCRF-CEM leukemia"
measurement_kind = "TGI"
reported_value = "> 100 µM"

[[record]]
compound = "CN(C)CCNc1nc2ccccc2c2c(=O)c3cc(F)ccc3sc12"
assayed_system = "CCRF-CEM leukemia"
measurement_kind = "TGI"
reported_value = "5 µM"

[[record]]
compound = "Cc1cc(NCCCCNc2ccnc3cc(Cl)ccc23)nc(Nc2ccc(C(=O)N3CCCCC3)cc2)n1"
assayed_system = "CCRF-CEM leukemia"
measurement_kind = "TGI"
reported_value = "7.55 µM"

[[record]]
compound = "CC(=O)NC1CONC1=O (stereo unspecified)"
assayed_system = "CCRF-CEM leukemia"
measurement_kind = "TGI"
reported_value = "> 100 µM"

[[record]]
compound = "O=C1OCC2OC(=O)c3cc(O)c(O)c(O)c3-c3c(O)c(O)c(O)c4c3C(=O)OC(C2OC(=O)c2cc(O)c(O)c(O)c2-c2c1cc(O)c(O)c2O)C1OC(=O)C2C4=C(O)C(=O)C23Oc2cc(O)c4c(c2[C@H]13)O[C@H](c1ccc(O)c(O)c1)[C@@H](O)C4 (stereo partly specified)"
assayed_system = "CCRF-CEM leukemia"
measurement_kind = "TGI"
reported_value = "> 100 µM"

[[record]]
compound = "O=C(N[C@@H](Cc1coc2ccccc12)B(O)O)[C@@H]1C[C@H]2CC[C@@H]1O2"
assayed_system = "CCRF-CEM leukemia"
measurement_kind = "TGI"
reported_value = "> 100 µM"

[[record]]
compound = "O=[N+]([O-])c1ccc(Sc2c3ccccc3nc3ccccc23)cn1"
assayed_system = "CCRF-CEM leukemia"
measurement_kind = "TGI"
reported_value = "8.3 µM"

[[record]]
compound = "COC(=O)c1c[nH]cc1CCCCc1c[nH]cc1C(=O)OC"
assayed_system = "CCRF-CEM leukemia"
measurement_kind = "TGI"
reported_value = "> 100 µM"

[[record]]
compound = "CCCO[C@@H]1[C@@H](OC(C)=O)[C@@H](OC(C)=O)C(C)(C)/C=C/[C@H](C)C(=O)[C@@]2(OC(C)=O)C[C@@](C)(OC(C)=O)[C@H](OC(C)=O)[C@@H]2[C@H]2OC(=O)CC[C@@]12OC(=O)c1ccccc1"
assayed_system = "CCRF-CEM leukemia"
measurement_kind = "TGI"
reported_value = "> 25 µM"


Every entry's value here was drawn from PubChem BioAssay (NCI).
